test: Acetone solubility
Type: physicochemical
test settings: acetone, organic solvent or mixture, thermodynamic from solid, Acetone, ambient temperature, ca. 24 hours; read-out: Solubility
measured attribute: solubility at 24 h (mg/mL)
The reply should contain only the number, in mg/mL.

INPUT: Entry under review: O=C(c1ccc(Oc2ccccc2)cc1Cl)c1c[nH]c2ncnc(N[C@@H]3CC[C@@H](CO)OC3)c12 [Form 8] . Reported solubility at 24 h?
OUTPUT: 11.5

This collection of values is drawn from patent US10975087B2.
